Reported DC50 by item:
molecular target: CDK11A (Homo sapiens); conditions: displacement of SNS-032-Atto590 probe (0.002 μM) from CDK11A-p58 (0.032 uM), fluorescence polarization
Where a name gives a salt, the structure may show the parent alone.
Form field: result (number plus unit)

COC(=O)c1ccc(Cl)c(-c2ccc3[nH]nc(NC(=O)[C@@H]4CCCNC4)c3c2)c1Cl [cpd 57, hydrochloride]
45 nM
CC(C)C(OC(=O)N1CCC[C@@H](C(=O)Nc2n[nH]c3ccc(-c4cc(C#N)ccc4Cl)cc23)C1)OC(=O)C(C)(C)C (some centres unmarked) [compound 197]
900 nM

Inquiry: Any idea what its DC50 is? The compound is O=C(Nc1n[nH]c2ccc(-c3cc(OC(F)(F)F)ccc3F)cc12)[C@@H]1CCCNC1 [cpd 23, hydrochloride]
Reply text: 75 nM

Inquiry: Any idea what its DC50 is? The compound is CC(OC(=O)C(C)C)OC(=O)N1CCC[C@@H](C(=O)Nc2n[nH]c3ccc(-c4cc(C#N)ccc4Cl)cc23)C1 (some centres unmarked) [compound 190]
Reply text: 706 nM

Inquiry: Any idea what its DC50 is? The compound is O=C(Nc1n[nH]c2ccc(OCCF)cc12)[C@@H]1CCCNC1 [cpd 227, hydrochloride]
Reply text: 71 nM

Inquiry: Any idea what its DC50 is? The compound is O=C(Nc1n[nH]c2ccc(-c3c(F)cccc3Cl)cc12)[C@@H]1CCCNC1 [compound 172, hydrochloride]
Reply text: 42 nM

----------
Reported DC50 by item:
target: CDK11A (Homo sapiens, UniProt Q9UQ88); conditions: displacement of SNS-032-Atto590 probe (0.002 μM) from CDK11A-p58 (0.032 uM), fluorescence polarization;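 further: compound preincubated 30 min with CDK11A-p58, then probe added and polarization (mP) read 15 min later, 0% displacement is probe plus enzyme, 100% is probe alone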
Sequence (Q9UQ88 346-783): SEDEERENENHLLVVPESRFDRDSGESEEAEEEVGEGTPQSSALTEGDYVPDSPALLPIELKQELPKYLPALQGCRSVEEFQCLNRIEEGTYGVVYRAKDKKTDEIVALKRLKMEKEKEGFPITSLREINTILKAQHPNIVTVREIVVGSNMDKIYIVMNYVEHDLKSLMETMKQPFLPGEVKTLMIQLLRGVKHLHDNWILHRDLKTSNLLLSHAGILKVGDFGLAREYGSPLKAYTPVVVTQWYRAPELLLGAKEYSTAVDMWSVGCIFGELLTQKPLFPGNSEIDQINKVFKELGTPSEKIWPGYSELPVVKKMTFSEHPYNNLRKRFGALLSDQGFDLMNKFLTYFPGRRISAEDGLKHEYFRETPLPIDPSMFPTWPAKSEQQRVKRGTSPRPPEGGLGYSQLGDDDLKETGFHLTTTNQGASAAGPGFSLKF
Counter-ions that a name gives are not always drawn.
Just the number in µM, nothing appended.

Here are 6 compounds together with their reported answers.
O=C(Nc1n[nH]c2ccc(-c3c(Cl)cccc3Cl)cc12)C1CCCNC1 (stereo not shown) [compound 157, hydrochloride]
0.059
CCOc1ccc(F)c(-c2ccc3[nH]nc(NC(=O)[C@@H]4CCCNC4)c3c2)c1 [cpd 22, hydrochloride]
0.055
CN1CCC(C(=O)Nc2n[nH]c3ccc(-c4ccc(O)c(C#N)c4)cc23)CC1 [compound 135, hydrochloride]
0.786
CC(C)(C)C(=O)OCOC(=O)N1CCC[C@@H](C(=O)Nc2n[nH]c3ccc(-c4cc(C#N)ccc4Cl)cc23)C1
0.34
CN1CCC(C(=O)Nc2n[nH]c3ccc(-c4ccc(N)cc4)cc23)CC1 [cpd 90, dihydrochloride]
0.592
O=C(Nc1n[nH]c2ccc(-c3cc(Cl)ccc3F)cc12)[C@@H]1CCCNC1 [cpd 21, hydrochloride]
0.046

Inquiry: Any idea what its DC50 is? The compound is Cc1ccc(Cl)c(-c2ccc3[nH]nc(NC(=O)C4CCN(C)CC4)c3c2)c1 [cpd 86, hydrochloride]
Reply text: 0.502

----------
tested on: EoL-1-cell; experiment: Cytotoxicity assay (CellTiterGlo, 72 hours treatment), EoL-1; assay type: cell-based, Human; details: Homo sapiens, EOL1, 72 h, EoL-1 acute myeloid leukemia cells, ATP determination, read-out: Cell line IC50 EoL-1-cell
Structures can show the parent of a compound that is named as a salt.
Entries whose IC50 is below 300 nM take T; entries at or above 300 nM take F.

Study these solved cases before continuing.
C[C@@H]1CC[C@@H](C(=O)Nc2n[nH]c3ccc(-c4cc(C#N)ccc4Cl)cc23)CN1 [compound 179, trifluoroacetate]
T
N#Cc1ccc(Cl)c(-c2ccc3[nH]nc(NC(=O)C4CCC5(CCCCC5)NC4)c3c2)c1 (stereo not shown) [compound 186, hydrochloride]
F
N#Cc1ccc(F)c(-c2ccc3[nH]nc(NC(=O)[C@@H]4CCCNC4)c3c2)c1 [cpd 25, hydrochloride]
F
N#Cc1ccc(Cl)c(-c2ccc3[nH]nc(NC(=O)[C@@H]4CCCNC4)c3c2)c1 [compound 174, hydrochloride]
T

Inquiry: is_below(IC50, 300 nM) for O=C(Nc1n[nH]c2ccc(-c3c(Cl)cccc3Cl)cc12)[C@@H]1CCCNC1 [compound 169, hydrochloride] ?
Reply text: T

Inquiry: is_below(IC50, 300 nM) for CCNC1CC(C(=O)Nc2n[nH]c3ccc(-c4cc(C#N)ccc4Cl)cc23)C1 (stereo not shown) [compound 152, hydrochloride] ?
Reply text: T

Inquiry: is_below(IC50, 300 nM) for CNC1CC(C(=O)Nc2n[nH]c3ccc(-c4c(Cl)cccc4Cl)cc23)C1 (stereo not shown) [compound 145, hydrochloride] ?
Reply text: F

Inquiry: is_below(IC50, 300 nM) for N#Cc1ccc(Cl)c(-c2ccc3[nH]nc(NC(=O)[C@@H]4CCC5(CCCCC5)NC4)c3c2)c1 (single isomer, unassigned) ?
Reply text: T

Inquiry: is_below(IC50, 300 nM) for Cc1ccc(F)c(-c2ccc3[nH]nc(NC(=O)[C@@H]4CCCNC4)c3c2)c1 [cpd 32, hydrochloride] ?
Reply text: F

Inquiry: is_below(IC50, 300 nM) for CC(=O)c1ccc(Cl)c(-c2ccc3[nH]nc(NC(=O)[C@@H]4CCCNC4)c3c2)c1 [cpd 33, hydrochloride] ?
Reply text: F

Inquiry: is_below(IC50, 300 nM) for N#Cc1ccc(Cl)c(-c2ccc3[nH]nc(NC(=O)[C@@H]4CCNC4)c3c2)c1 [compound 176, hydrochloride] ?
Reply text: F

Inquiry: is_below(IC50, 300 nM) for CC1(C)CCC(C(=O)Nc2n[nH]c3ccc(-c4cc(C#N)ccc4Cl)cc23)CN1 (stereo not shown) [compound 184, hydrochloride] ?
Reply text: T

Inquiry: is_below(IC50, 300 nM) for O=C(Nc1n[nH]c2ccc(-c3c(F)cccc3Cl)cc12)C1CCCNC1 (stereo not shown) [compound 165, hydrochloride] ?
Reply text: F

Inquiry: is_below(IC50, 300 nM) for O=C(Nc1n[nH]c2ccc(-c3c(Cl)cccc3Cl)cc12)[C@@H]1CCNC1 [compound 167, hydrochloride] ?
Reply text: F

Inquiry: is_below(IC50, 300 nM) for O=C(Nc1n[nH]c2ccc(-c3c(Cl)cccc3Cl)cc12)C1CCCNC1 (stereo not shown) [compound 157, hydrochloride] ?
Reply text: F

Inquiry: is_below(IC50, 300 nM) for N#Cc1ccc(Cl)c(-c2ccc3[nH]nc(NC(=O)[C@@H]4CCC5(CCCC5)NC4)c3c2)c1 (single isomer, unassigned) [compound 204, hydrochloride] ?
Reply text: T

Inquiry: is_below(IC50, 300 nM) for N#Cc1ccc(Cl)c(-c2ccc3[nH]nc(NC(=O)C4CCCNC4)c3c2)c1 (stereo not shown) [compound 171, hydrochloride] ?
Reply text: F

Inquiry: is_below(IC50, 300 nM) for Cc1ccc(C#N)cc1-c1ccc2[nH]nc(NC(=O)[C@@H]3CCCNC3)c2c1 [cpd 24, hydrochloride] ?
Reply text: F

Values from patent US20250206724A1
